- experimental_target: α1G T-type Ca2+ channels (Homo sapiens)
- Construct: expressed in transfected cells; host or cells: HEK293 cells stably expressing α1G and Kir2.1
- Sequence (O43497 whole entry): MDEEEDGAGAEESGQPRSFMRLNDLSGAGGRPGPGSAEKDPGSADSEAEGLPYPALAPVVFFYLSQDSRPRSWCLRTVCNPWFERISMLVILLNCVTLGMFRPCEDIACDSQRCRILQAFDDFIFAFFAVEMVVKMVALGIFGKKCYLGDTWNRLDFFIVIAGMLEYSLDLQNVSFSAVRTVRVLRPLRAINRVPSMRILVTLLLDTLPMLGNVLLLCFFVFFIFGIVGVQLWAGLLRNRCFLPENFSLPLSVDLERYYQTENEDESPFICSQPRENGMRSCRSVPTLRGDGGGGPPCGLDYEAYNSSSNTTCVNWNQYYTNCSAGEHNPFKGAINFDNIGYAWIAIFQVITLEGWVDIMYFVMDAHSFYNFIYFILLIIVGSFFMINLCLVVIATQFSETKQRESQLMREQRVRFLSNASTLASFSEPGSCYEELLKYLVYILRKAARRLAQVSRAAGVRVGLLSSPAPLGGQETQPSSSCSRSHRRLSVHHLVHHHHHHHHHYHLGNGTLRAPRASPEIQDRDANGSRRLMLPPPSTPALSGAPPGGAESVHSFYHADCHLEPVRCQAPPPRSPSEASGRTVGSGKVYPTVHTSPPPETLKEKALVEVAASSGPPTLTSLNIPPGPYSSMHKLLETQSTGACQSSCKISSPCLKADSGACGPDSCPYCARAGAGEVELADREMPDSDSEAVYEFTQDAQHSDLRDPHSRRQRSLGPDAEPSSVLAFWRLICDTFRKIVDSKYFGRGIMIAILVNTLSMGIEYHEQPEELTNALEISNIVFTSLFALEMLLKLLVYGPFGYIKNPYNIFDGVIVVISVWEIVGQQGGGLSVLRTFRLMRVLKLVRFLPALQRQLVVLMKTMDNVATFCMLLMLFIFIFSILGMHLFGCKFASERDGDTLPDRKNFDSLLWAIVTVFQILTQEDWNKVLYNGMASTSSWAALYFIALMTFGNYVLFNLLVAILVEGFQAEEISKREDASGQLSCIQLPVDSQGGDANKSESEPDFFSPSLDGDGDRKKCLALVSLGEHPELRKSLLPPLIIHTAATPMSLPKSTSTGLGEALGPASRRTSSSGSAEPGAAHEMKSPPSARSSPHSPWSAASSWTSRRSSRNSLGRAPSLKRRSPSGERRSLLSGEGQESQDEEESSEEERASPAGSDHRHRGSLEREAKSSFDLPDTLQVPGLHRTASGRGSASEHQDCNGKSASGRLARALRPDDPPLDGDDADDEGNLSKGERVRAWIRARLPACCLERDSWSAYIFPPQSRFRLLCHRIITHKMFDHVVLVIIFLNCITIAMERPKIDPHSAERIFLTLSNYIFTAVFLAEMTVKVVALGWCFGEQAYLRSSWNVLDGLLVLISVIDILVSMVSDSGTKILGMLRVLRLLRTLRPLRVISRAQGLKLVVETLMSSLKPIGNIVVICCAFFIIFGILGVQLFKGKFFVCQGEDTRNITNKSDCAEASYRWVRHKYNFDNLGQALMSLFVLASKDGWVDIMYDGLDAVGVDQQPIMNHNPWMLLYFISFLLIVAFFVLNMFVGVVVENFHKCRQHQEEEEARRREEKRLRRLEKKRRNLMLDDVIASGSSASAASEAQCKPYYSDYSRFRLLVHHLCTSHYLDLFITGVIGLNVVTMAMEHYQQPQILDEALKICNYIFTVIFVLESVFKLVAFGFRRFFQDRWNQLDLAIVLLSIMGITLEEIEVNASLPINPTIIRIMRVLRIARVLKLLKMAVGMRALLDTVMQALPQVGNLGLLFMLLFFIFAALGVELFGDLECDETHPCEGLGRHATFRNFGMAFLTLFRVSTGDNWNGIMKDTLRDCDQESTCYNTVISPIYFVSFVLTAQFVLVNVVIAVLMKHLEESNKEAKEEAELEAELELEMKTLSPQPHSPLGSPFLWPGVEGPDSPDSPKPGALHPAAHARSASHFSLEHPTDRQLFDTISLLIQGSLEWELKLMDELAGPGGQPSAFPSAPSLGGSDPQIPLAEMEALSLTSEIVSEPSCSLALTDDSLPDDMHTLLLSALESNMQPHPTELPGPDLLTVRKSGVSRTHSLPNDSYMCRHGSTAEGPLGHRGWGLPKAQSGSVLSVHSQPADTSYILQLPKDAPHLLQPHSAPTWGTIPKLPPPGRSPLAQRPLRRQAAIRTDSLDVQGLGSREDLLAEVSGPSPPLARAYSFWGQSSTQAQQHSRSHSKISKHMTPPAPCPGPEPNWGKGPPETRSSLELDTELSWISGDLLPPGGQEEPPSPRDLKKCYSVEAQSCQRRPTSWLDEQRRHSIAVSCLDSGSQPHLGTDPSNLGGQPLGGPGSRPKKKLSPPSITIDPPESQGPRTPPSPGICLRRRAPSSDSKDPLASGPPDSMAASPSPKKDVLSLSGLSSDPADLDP
- assay_method_text: Screening of activity against T-type calcium channel with FDSS6000 (fluorescence, KCl-induced [Ca2+]i increase)
- Type: cell-based
- measurement_parameters: 100 μM; HEK293 cells expressing α1G and Kir2.1; read-out: Inhibitory effect (%) of T-type calcium channel, Inhibition (%)
recorded_endpoint: inhibition at 100 µM (%)

Some solved entries appear below for comparison.
> print(dat)
                                   compound     recorded.endpoint  unit.of.measurement  result.value
1  O=C(NCCN1CCCC1)c1ccc2c(c1)C(=O)N(Cc1cccc(F)c1)C2=O [Compound 63]  inhibition at 100 µM                    %          73.4
2  O=C(NCCN1CCOCC1)c1ccc2c(c1)C(=O)N(Cc1ccc(F)cc1)C2=O [Compound 72]  inhibition at 100 µM                    %          46.4

1. CC1CCCCN1CCCNC(=O)c1ccc2c(c1)C(=O)N(c1cccc(F)c1)C2=O (stereo not shown) [Compound 14]
2. CC1CCCCN1CCCNC(=O)c1ccc2c(c1)C(=O)N(Cc1cccc(F)c1)C2=O (stereo not shown) [Compound 62]
In: Between 1 and 2 , whose recorded inhibition at 100 µM is greater? Answer by stating the label of the chosen item.
Out: 2
(2: 83.5%, 1: 44.2%)

###

- experimental_target: α1G T-type Ca2+ channels (Homo sapiens)
- Construct: expressed in transfected cells; host or cells: HEK293 cells stably expressing α1G and Kir2.1
- assay_method_text: Screening of activity against T-type calcium channel with FDSS6000 (fluorescence, KCl-induced [Ca2+]i increase)
- Type: cell-based
- measurement_parameters: 10 μM; HEK293 cells expressing α1G and Kir2.1; NA: Not Active; read-out: Inhibitory effect (%) of T-type calcium channel, Inhibition (%)
- Procedure: Meanwhile, the antagonistic activity of the novel compound of Formula (1) herein against T-type calcium channel was tested as described below. The synthesized compounds were tested for the activity against T-type calcium channel with FDSS6000. Compounds with good activity were selected and IC50 values were exactly obtained by using electrophysiological whole cell patch clamp method. […] All data were collected and analyzed using FDSS6000 and related software (Hamamatsu, Japan). […]
recorded_endpoint: inhibition at 10 µM (%)

Some solved entries appear below for comparison.
> print(dat)
                                test.smiles    recorded.endpoint  result.value
1  O=C(NCCN1CCCC1)c1ccc2c(c1)C(=O)N(Cc1ccc(Cl)cc1)C2=O  inhibition at 10 µM          29.8
2  O=C(NCCCN1CCCC1)c1ccc2c(c1)C(=O)N(Cc1ccc(Cl)cc1)C2=O  inhibition at 10 µM            35
3  O=C(NCCN1CCCC1)c1ccc2c(c1)C(=O)N(Cc1ccccc1Cl)C2=O  inhibition at 10 µM          21.5
4  O=C(NCCN1CCOCC1)c1ccc2c(c1)C(=O)N(Cc1cccc(Cl)c1)C2=O  inhibition at 10 µM          25.3

P. O=C(NCCCN1CCOCC1)c1ccc2c(c1)C(=O)N(Cc1ccc(Cl)cc1)C2=O
Q. Cc1ccc(N2C(=O)c3ccc(C(=O)NCCN4CCCC4)cc3C2=O)cc1
In: Between P and Q , whose recorded inhibition at 10 µM is greater? Answer by stating the label of the chosen item.
Out: P

###

- experimental_target: α1G T-type Ca2+ channels (Homo sapiens)
- Construct: expressed in transfected cells; host or cells: HEK293 cells stably expressing α1G and Kir2.1
- assay_method_text: Screening of activity against T-type calcium channel with FDSS6000 (fluorescence, KCl-induced [Ca2+]i increase)
- Assay type: cell-based
- measurement_parameters: 10 μM; HEK293 cells expressing α1G and Kir2.1; NA: Not Active; read-out: Inhibitory effect (%) of T-type calcium channel, Inhibition (%)
recorded_endpoint: inhibition at 10 µM (%)

Some solved entries appear below for comparison.
> print(dat)
                                   compound                      experimental.target    recorded.endpoint  result.value
1  COCC(=O)O[C@]1(CCN(C)CCCc2nc3ccccc3[nH]2)CCc2cc(F)ccc2[C@@H]1C(C)C [Mibefradil, reference compound]  α1G T-type Ca2+ channels (Homo sapiens)  inhibition at 10 µM          75.1
2  O=C(NCCN1CCCCC1)c1ccc2c(c1)C(=O)N(Cc1ccccc1Cl)C2=O [Compound 75]  α1G T-type Ca2+ channels (Homo sapiens)  inhibition at 10 µM          33.6
3  CC1CCCCN1CCCNC(=O)c1ccc2c(c1)C(=O)N(Cc1ccccc1Cl)C2=O (centres unmarked) [Compound 76]  α1G T-type Ca2+ channels (Homo sapiens)  inhibition at 10 µM          50.9

A. Cc1ccccc1CN1C(=O)c2ccc(C(=O)NCCCN3CCCC3)cc2C1=O [Compound 96]
B. O=C(NCCCN1CCOCC1)c1ccc2c(c1)C(=O)N(Cc1ccccc1Cl)C2=O [Compound 80]
In: Hi there, can you help? I need to know whether A or B has lower measured inhibition at 10 µM. Answer by stating the label of the chosen item.
Out: A

###

- experimental_target: α1G T-type Ca2+ channels (Homo sapiens)
- Construct: expressed in transfected cells; host or cells: HEK293 cells stably expressing α1G and Kir2.1
- assay_method_text: Screening of activity against T-type calcium channel with FDSS6000 (fluorescence, KCl-induced [Ca2+]i increase)
- Type: cell-based
- measurement_parameters: 100 μM; HEK293 cells expressing α1G and Kir2.1; read-out: Inhibitory effect (%) of T-type calcium channel, Inhibition (%)
recorded_endpoint: inhibition at 100 µM (%)

Some solved entries appear below for comparison.
> print(dat)
                                   compound  result.value
1  COc1ccc(CN2C(=O)c3ccc(C(=O)NCCCN4CCCCC4C)cc3C2=O)cc1 (centres unmarked) [Compound 124]          77.7
2  CC1CCCCN1CCCNC(=O)c1ccc2c(c1)C(=O)N(Cc1ccc(F)cc1)C2=O (centres unmarked) [Compound 69]          84.7
3  O=C(NCCN1CCCC1)c1ccc2c(c1)C(=O)N(c1ccccc1F)C2=O [Compound 9]          39.7
4  O=C(NCCN1CCCCC1)c1ccc2c(c1)C(=O)N(c1cccc(Cl)c1)C2=O [Compound 26]          52.7
5  O=C(NCCCN1CCOCC1)c1ccc2c(c1)C(=O)N(Cc1ccccc1F)C2=O [Compound 60]          60.8

a. O=C(NCCCN1CCCC1)c1ccc2c(c1)C(=O)N(c1ccccc1)C2=O [Compound 4]
b. Cc1ccccc1N1C(=O)c2ccc(C(=O)NCCN3CCOCC3)cc2C1=O [Compound 32]
c. COc1ccc(CN2C(=O)c3ccc(C(=O)NCCCN4CCCC4)cc3C2=O)cc1 [Compound 126]
In: Would you mind ranking these compounds by ascending inhibition at 100 µM? // rank by listing labels in the order requested
Out: b, a, c
(b: 22.3%, a: 38.7%, c: 73.8%)

###

- experimental_target: α1G T-type Ca2+ channels (Homo sapiens)
- Construct: expressed in transfected cells; host or cells: HEK293 cells stably expressing α1G and Kir2.1
- assay_method_text: Screening of activity against T-type calcium channel with FDSS6000 (fluorescence, KCl-induced [Ca2+]i increase)
- Format: cell-based
- measurement_parameters: 100 μM; HEK293 cells expressing α1G and Kir2.1; read-out: Inhibitory effect (%) of T-type calcium channel, Inhibition (%)
recorded_endpoint: inhibition at 100 µM (%)

> print(dat)
                                   compound     recorded.endpoint  unit.of.measurement  result.value
1  COc1ccccc1CN1C(=O)c2ccc(C(=O)NCCN3CCCC3)cc2C1=O [Compound 113]  inhibition at 100 µM                    %          55.1
2  COc1ccccc1CN1C(=O)c2ccc(C(=O)NCCN3CCCCC3)cc2C1=O [Compound 111]  inhibition at 100 µM                    %          69.5
3  CC1CCCCN1CCCNC(=O)c1ccc2c(c1)C(=O)N(c1ccccc1F)C2=O (centres unmarked) [Compound 8]  inhibition at 100 µM                    %          36.8
4  O=C(NCCN1CCCCC1)c1ccc2c(c1)C(=O)N(Cc1ccccc1)C2=O [Compound 49]  inhibition at 100 µM                    %          72.4
5  COc1ccccc1CN1C(=O)c2ccc(C(=O)NCCCN3CCCCC3C)cc2C1=O (centres unmarked) [Compound 112]  inhibition at 100 µM                    %          75.1

1. Cc1ccccc1CN1C(=O)c2ccc(C(=O)NCCN3CCCCC3)cc2C1=O [Compound 93]
2. O=C(NCCN1CCOCC1)c1ccc2c(c1)C(=O)N(Cc1ccccc1F)C2=O [Compound 59]
In: Between 1 and 2 , whose recorded inhibition at 100 µM is greater? Answer by stating the label of the chosen item.
Out: 1
(1: 90.4%, 2: 30.2%)

Measured values drawn from patent US7319098B2 for this set.
